meta.source: ChEMBL document CHEMBL4196076

Test system: 518A2
Assay: Cytotoxicity against human 518A2 cells after 96 hrs by sulforhodamine-B assay
Type: functional, cell-based
Settings: 518A2, 96 h
List of EC50 values.
ENDPOINT: EC50 (µM)

[
  {
    "SMILES": "C=CCN(CC(=O)NCCCC)C(=O)[C@]12CCC(C)(C)C[C@H]1C1=CC[C@@H]3[C@@]4(C)CC[C@H](O)C(C)(C)[C@@H]4CC[C@@]3(C)[C@]1(C)CC2",
    "BOUND OPERATOR": ">",
    "TEST VALUE": 30
  },
  {
    "SMILES": "C=CCN(CC(=O)NCc1ccccc1)C(=O)[C@]12CCC(C)(C)C[C@H]1C1=CC[C@@H]3[C@@]4(C)CC[C@H](O)C(C)(C)[C@@H]4CC[C@@]3(C)[C@]1(C)CC2",
    "BOUND OPERATOR": ">",
    "TEST VALUE": 30
  },
  {
    "SMILES": "CCCCN(CC(=O)NCc1ccccc1)C(=O)[C@]12CCC(C)(C)C[C@H]1C1=CC[C@@H]3[C@@]4(C)CC[C@H](OC(C)=O)C(C)(C)[C@@H]4CC[C@@]3(C)[C@]1(C)CC2",
    "BOUND OPERATOR": "=",
    "TEST VALUE": 8.2
  },
  {
    "SMILES": "COC(=O)CNC(=O)CN(Cc1ccoc1)C(=O)[C@]12CCC(C)(C)C[C@H]1C1=CC[C@@H]3[C@@]4(C)CC[C@H](OC(C)=O)C(C)(C)[C@@H]4CC[C@@]3(C)[C@]1(C)CC2",
    "BOUND OPERATOR": "=",
    "TEST VALUE": 6.5
  },
  {
    "SMILES": "CC1(C)CC[C@]2(C(=O)N(CC(=O)NCc3ccccc3)Cc3ccoc3)CC[C@]3(C)C(=CC[C@@H]4[C@@]5(C)CC[C@H](O)C(C)(C)[C@@H]5CC[C@]43C)[C@@H]2C1",
    "BOUND OPERATOR": ">",
    "TEST VALUE": 30
  },
  {
    "SMILES": "CC(=O)O[C@H]1CC[C@]2(C)[C@H]3CC=C4[C@@H]5CC(C)(C)CC[C@]5(C(=O)N(CC(=O)NCc5ccccc5)C(C)C)CC[C@@]4(C)[C@]3(C)CC[C@H]2C1(C)C",
    "BOUND OPERATOR": "=",
    "TEST VALUE": 20.9
  },
  {
    "SMILES": "CC1(C)CC[C@]2(C(=O)N(CC(=O)NC(C)(C)C)Cc3cccc(F)c3)CC[C@]3(C)C(=CC[C@@H]4[C@@]5(C)CC[C@H](O)C(C)(C)[C@@H]5CC[C@]43C)[C@@H]2C1",
    "BOUND OPERATOR": ">",
    "TEST VALUE": 30
  }
]
